# measurement-target: human DOR (Homo sapiens, UniProt P41143)
# Sequence (P41143 whole entry): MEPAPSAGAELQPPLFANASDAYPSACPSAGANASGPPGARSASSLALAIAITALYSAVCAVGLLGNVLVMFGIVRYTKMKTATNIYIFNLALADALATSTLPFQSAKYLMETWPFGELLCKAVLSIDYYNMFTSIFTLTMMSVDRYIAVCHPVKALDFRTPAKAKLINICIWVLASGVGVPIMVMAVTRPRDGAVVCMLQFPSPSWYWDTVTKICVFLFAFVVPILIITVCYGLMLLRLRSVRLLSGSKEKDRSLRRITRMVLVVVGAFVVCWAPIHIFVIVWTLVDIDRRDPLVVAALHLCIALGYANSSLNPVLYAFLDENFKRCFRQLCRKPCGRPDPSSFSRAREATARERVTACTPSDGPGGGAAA
# Format: binding
quantity: Selectivity MOR:DOR:KOR, DOR term (Ki DOR / Ki MOR)

GET /value?item= CCOc1ccc(CN2CC3CC3C2)cc1CNC(=O)[C@@H](N)Cc1c(C)cc(O)cc1C.O=C(O)C(F)(F)F (some centres unmarked) &field=Selectivity MOR:DOR:KOR, DOR term (Ki DOR / Ki MOR) returns 1:2.6:13

Recorded result, CCOc1ccc(CN2CCOCC2)cc1CNC(=O)[C@@H](N)Cc1c(C)cc(O)cc1C.O=C(O)C(F)(F)F , Selectivity MOR:DOR:KOR, DOR term (Ki DOR / Ki MOR): 1:2.0:>49

Given item CCOc1ccc(C(=O)N2Cc3ccccc3C2)cc1CNC(=O)[C@@H](N)Cc1c(C)cc(O)cc1C.O=C(O)C(F)(F)F , the value recorded as its Selectivity MOR:DOR:KOR, DOR term (Ki DOR / Ki MOR) is 1:20:900

// recorded Selectivity MOR:DOR:KOR, DOR term (Ki DOR / Ki MOR) for CCOc1ccc(CN2CCCCC2)cc1CNC(=O)[C@@H](N)Cc1c(C)cc(O)cc1C.O=C(O)C(F)(F)F : 1:3.1:20

Entry CCOc1ccc(C(=O)N2CCCC2)cc1CNC(=O)[C@@H](N)Cc1c(C)cc(O)cc1C.O=C(O)C(F)(F)F , Selectivity MOR:DOR:KOR, DOR term (Ki DOR / Ki MOR) reported as 1:2.2:>22

compound CCOc1ccc(CN2CCCC2)cc1CNC(=O)[C@@H](N)Cc1c(C)cc(O)cc1C.O=C(O)C(F)(F)F , Selectivity MOR:DOR:KOR, DOR term (Ki DOR / Ki MOR) observed: 1:3.0:29

Just so you know, measured Selectivity MOR:DOR:KOR, DOR term (Ki DOR / Ki MOR) for CCOc1ccc(CN2CCc3ccccc3C2)cc1CNC(=O)[C@@H](N)Cc1c(C)cc(O)cc1C.O=C(O)C(F)(F)F came out at 1:10:192

response.value for CCOc1ccc(CN(C)Cc2ccccc2)cc1CNC(=O)[C@@H](N)Cc1c(C)cc(O)cc1C.O=C(O)C(F)(F)F (field: Selectivity MOR:DOR:KOR, DOR term (Ki DOR / Ki MOR)) = 1:4.0:26
